# assay.method.text: Cell viability (MTT colourimetric assay) in the TDO cell-based assay
# condition.details: mouse, same experiment as cellular TDO assay, read-out: Cell cytotoxicity IC50
// values below are reported IC50

INSERT INTO results (molecule, observed_property, reported_result) VALUES
  ('Cc1nc2onc(NC(=O)Oc3ccccc3)c2c(C)c1Cl [Compound 4]', 'IC50', '> 100 µM');

[ask] Record request: IC50 value, item Cc1nc2onc(N)c2c(C)c1Cl [Compound 1]
[reply] > 100 µM

[ask] Can you handle Cc1nc2onc(NC(=O)Nc3cccc(C(F)(F)F)c3)c2c(C)c1Cl [Compound 15] next?
[reply] > 100 µM

* * *

# target.or.system: Recombinant human IDO1 (rhIDO1) (Homo sapiens (Human))
# Sequence (P14902 whole entry): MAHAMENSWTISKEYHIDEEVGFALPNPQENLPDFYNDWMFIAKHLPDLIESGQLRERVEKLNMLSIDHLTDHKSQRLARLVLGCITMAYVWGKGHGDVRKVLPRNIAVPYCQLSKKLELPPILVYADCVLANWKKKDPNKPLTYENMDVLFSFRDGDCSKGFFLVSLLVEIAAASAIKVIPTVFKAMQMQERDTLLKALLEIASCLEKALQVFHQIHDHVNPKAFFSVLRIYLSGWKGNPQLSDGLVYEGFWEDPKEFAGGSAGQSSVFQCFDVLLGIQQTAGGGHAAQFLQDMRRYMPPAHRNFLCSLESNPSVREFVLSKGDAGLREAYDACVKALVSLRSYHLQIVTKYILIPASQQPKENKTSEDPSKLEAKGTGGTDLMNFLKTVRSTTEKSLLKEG
# assay.method.text: Enzymatic assay for IDO1 activity
# condition.details: rhIDO1 9 nM, 80 μM TRP, 37° C. 30 min
// values below are reported IC50

Examples with answers:
INSERT INTO results (compound, reported_result) VALUES
  ('COc1ccc(NC(=O)Nc2noc3nc(C)c(Cl)c(C)c23)cc1 [Compound 13]', '> 100 µM'),
  ('Cc1nc2onc(NC(=O)Nc3ccc(Cl)cc3)c2c(C)c1Cl [Compound 8]', '> 100 µM'),
  ('Cc1nc2onc(NC(=O)Nc3ccccc3C(F)(F)F)c2c(C)c1Cl [Compound 14]', '> 100 µM'),
  ('COc1ccccc1NC(=O)Nc1noc2nc(C)c(Cl)c(C)c12 [Compound 11]', '10 to 100 µM');

Now for the compound whose IC50 we want.
[ask] Any idea what IC50 came out for Cc1nc2onc(NC(=O)Cc3ccc(OC(F)(F)F)cc3)c2c(C)c1Cl [Compound 19] on Recombinant human IDO1 (rhIDO1) (Homo sapiens (Human))?
[reply] > 100 µM
